Data origin: paper PMC4506529

target: human C-terminal DNMT3A (a.a. 623-908) (Homo sapiens); experiment: DNMT3A restriction-based fluorescence enzyme inhibition assay
Measured EC50 by item
Use nM as the unit, but write only the number.

> print(dat)
                            molecule.smiles  assay.result
1  O=C(Nc1ccc(Nc2ccnc3ccccc23)cc1)c1ccc(Nc2ccncc2)cc1           900

Data request: Give EC50; test system human C-terminal DNMT3A (a.a. 623-908) (Homo sapiens); molecule Cc1cc(Nc2ccc(NC(=O)c3ccc(Nc4ccncc4)cc3)cc2)nc(N)n1
Data returned: 13000

Data request: Give reported EC50 for Cc1cc(Nc2ccc(NC(=O)c3ccc(Nc4cc(-c5ccccc5)nc5ccccc45)cc3)cc2)nc(N)n1 (human C-terminal DNMT3A (a.a. 623-908) (Homo sapiens))
Data returned: 1600

###

In this section, each of the compounds is paired with its reported inhibition at 10 µM.
molecular target: human C-terminal DNMT3A (a.a. 623-908) (Homo sapiens, UniProt Q9Y6K1); assay: DNMT3A restriction-based fluorescence enzyme inhibition assay; format: biochemical; conditions: read-out: Inhibition [%] of DNMT3A catalytic activity
Sequence (Q9Y6K1 627-912): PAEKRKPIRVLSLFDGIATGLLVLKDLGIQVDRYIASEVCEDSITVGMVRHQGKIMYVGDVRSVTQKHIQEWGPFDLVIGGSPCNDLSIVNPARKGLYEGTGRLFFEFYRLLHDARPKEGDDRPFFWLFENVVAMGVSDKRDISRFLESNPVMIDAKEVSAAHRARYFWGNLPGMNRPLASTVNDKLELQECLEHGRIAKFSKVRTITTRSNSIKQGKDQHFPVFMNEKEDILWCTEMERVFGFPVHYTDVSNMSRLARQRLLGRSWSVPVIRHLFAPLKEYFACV
Express your answer in %, writing the number without its unit.

These solved cases illustrate the format of a correct answer.
> print(dat)
                                   compound                               measured.on  measurement.unit  assay.result
1  Cc1cc(Nc2ccc(C(=O)Nc3ccc(Nc4ccnc5ccccc45)cc3)cc2)nc(N)n1  human C-terminal DNMT3A (a.a. 623-908) (Homo sapiens, UniProt Q9Y6K1)                 %            56
2  Cc1cc(Nc2ccc(NC(=O)c3ccc(Nc4ccnc5ccccc45)cc3)cc2)nc(N)n1 [SGI-1027, reference compound]  human C-terminal DNMT3A (a.a. 623-908) (Homo sapiens, UniProt Q9Y6K1)                 %            74
3  Cc1cc(Nc2ccc(NC(=O)c3ccc(Nc4ncnc5nc[nH]c45)cc3)cc2)nc(N)n1  human C-terminal DNMT3A (a.a. 623-908) (Homo sapiens, UniProt Q9Y6K1)                 %             8

Data request: Answer with reported inhibition at 10 µM of CNc1ccc(C(=O)Nc2ccc(Nc3cc(C)nc(N)n3)cc2)cc1
Data returned: 0

Data request: Input Cc1cc(Nc2ccc(NC(=O)c3ccc(Nc4ncnc5cc(F)ccc45)cc3)cc2)nc(N)n1 , output reported inhibition at 10 µM.
Data returned: 19

Data request: Give recorded inhibition at 10 µM. Nc1cc(Nc2ccc(C(=O)Nc3ccc(Nc4ccnc5ccccc45)cc3)cc2)nc(N)n1
Data returned: 53

Data request: Quick one: give measured inhibition at 10 µM for O=C(Nc1ccc(Nc2ccnc3ccccc23)cc1)c1ccc(Nc2cc(-c3ccccc3)nc3ccccc23)cc1
Data returned: 29

Data request: Using known records, supply inhibition at 10 µM for Cc1cc(Nc2ccc(NC(=O)c3ccc(Nc4cc(-c5ccccc5)nc5ccccc45)cc3)cc2)nc(N)n1
Data returned: 81

###

biological target: human C-terminal DNMT3A (a.a. 623-908) (Homo sapiens); assay: DNMT3A restriction-based fluorescence enzyme inhibition assay; format: biochemical; details: read-out: Inhibition [%] of DNMT3A catalytic activity
observation_type: inhibition at 32 µM (%)
Report the value in % with no unit label.

Use the examples below as a reference point.
> print(dat)
                                   compound     observation.type  assay.result
1  O=C(Nc1ccc(Nc2ccncc2)cc1)c1ccc(Nc2ccncc2)cc1  inhibition at 32 µM            54
2  Cc1cc(Nc2ccc(NC(=O)c3ccc(Nc4cc(-c5ccccc5)nc5ccccc45)cc3)cc2)nc(N)n1  inhibition at 32 µM            55
3  Cc1cc(Nc2ccc(NC(=O)c3ccc(Nc4ncccn4)cc3)cc2)nc(N)n1  inhibition at 32 µM            65

Data request: Answer with the recorded inhibition at 32 µM of Cc1cc(Nc2ccc(NC(=O)c3ccc(Nc4ccnc5ccccc45)cc3)cc2)nc(N)n1 [SGI-1027, reference compound] only.
Data returned: 76

Data request: Entry O=C(Nc1ccc(Nc2ccnc3ccccc23)cc1)c1ccc(Nc2cc(-c3ccccc3)nc3ccccc23)cc1 needs its inhibition at 32 µM filled in; supply it.
Data returned: 46

Data request: Query inhibition at 32 µM for Cc1cc(Nc2ccc(NC(=O)c3ccc(Nc4ncnc5ccccc45)cc3)cc2)nc(N)n1
Data returned: 19

Data request: Answer with the recorded inhibition at 32 µM for the compound listed here: O=C(Nc1ccc(Nc2c3ccccc3nc3ccccc23)cc1)c1ccc(Nc2c3ccccc3nc3ccccc23)cc1
Data returned: 62

Data request: // fetch inhibition at 32 µM given entry COc1nc(Nc2ccc(C(=O)Nc3ccc(Nc4cc(C)nc(N)n4)cc3)cc2)nc(OC)n1
Data returned: 35
